Source of measurements: ChEMBL document CHEMBL1201862

tested on: SF-539; assay: NCI tumour cell line growth inhibition, 48 h
Calls of active or inactive are those of the source. Cut-off read from the data, not from the text of the source: active = GI50 up to about 1.1 µM and inactive = higher.
This listing pairs compounds with measured GI50.

Examples with answers:
> print(dat)
                                    compound  parameter.measured           meas.value
 1  CN(C(=O)C12C3C4C1C1C2C3C41C(=O)N(C)C(C)(C)C)C(C)(C)C (stereo unspecified)                GI50   > 50 µM (inactive)
 2  COc1cc(S(=O)(=O)Nc2ccc(-c3csc(N4C(=O)CSC4c4ccccc4)n3)cc2)ccc1Cl (stereo unspecified)                GI50   80.7 µM (inactive)
 3  COc1cc(CC2c3cc(OC)c(OC)cc3CCN2C)c(Oc2cc3c(cc2OC)-c2c(OC)c(OC)c(OC)c4c2C(C3)N(C)CC4)cc1OC (stereo unspecified)                GI50     13 µM (inactive)
 4  COc1ccc2c(c1O)C(=O)C(CCC(=O)O)CC2 (stereo unspecified)                GI50  > 100 µM (inactive)
 5  CN(C)C(=S)/N=c1\ss/c(=N\S(=O)(=O)c2ccccc2)n1C                GI50  > 100 µM (inactive)
 6  COC(=O)c1csc(-c2csc(CCNC(=O)OC(C)(C)C)n2)n1                GI50  > 100 µM (inactive)
 7  C[C@]12CCC(=O)C(OC(=O)c3ccc([N+](=O)[O-])cc3)=C1CCC2=O                GI50  > 100 µM (inactive)
 8  CCC(C(=O)C(=O)C(CC)P1(=O)OC(C)(C)CN1C(C)(C)C)P1(=O)OC(C)(C)CN1C(C)(C)C (stereo unspecified)                GI50  > 100 µM (inactive)
 9  C/C(=C\CO)CC[C@@H]1[C@@]2(C)CCCC(C)(C)[C@@H]2CC[C@@]1(C)O                GI50   18.1 µM (inactive)
10  COc1cc(C2SCC(=O)N2c2cc(Cl)c(Cl)cc2Cl)cc(OC)c1OC (stereo unspecified)                GI50   43.1 µM (inactive)

Ask | Form field: reported GI50 of CC1=C/C(=N\NC(N)=S)C(C(O)(C(F)(F)F)C(F)(F)F)C(C)(C)C1 (stereo unspecified)
Reply | > 10 µM (inactive)

Ask | Form field: reported GI50 of COc1ccc(C2OCCN2C)cc1 (stereo unspecified)
Reply | > 100 µM (inactive)

Ask | Form field: reported GI50 of Cc1c(C(=O)C/C(=N/NC(=O)CC#N)C(N)=O)[n+]([O-])c2ccccc2[n+]1[O-]
Reply | 37.8 µM (inactive)

Ask | Form field: reported GI50 of CN(C)C(=N)c1ccccc1
Reply | > 100 µM (inactive)

Ask | Form field: reported GI50 of N#C/C(=C\c1ccccc1O)C(N)=O
Reply | > 100 µM (inactive)

Ask | Form field: reported GI50 of COc1nc2ccc(COc3ccc(C(=O)NC(CCC(=O)O)C(=O)O)cc3)cc2nc1OC (stereo unspecified)
Reply | > 10 µM (inactive)

Ask | Form field: reported GI50 of C[S+]=c1sc2ccccc2s1
Reply | > 100 µM (inactive)

Ask | Form field: reported GI50 of O=C(O)[C@@H]1CCCN1
Reply | > 100 µM (inactive)

Ask | Form field: reported GI50 of Nc1ccc2c3c1cccc3c(=O)n1c3ccc(Cc4ccc5c(c4)nc4c6ccc(N)c7cccc(c(=O)n54)c76)cc3nc21
Reply | > 100 µM (inactive)

Ask | Form field: reported GI50 of O=C(NCCc1ccccc1)C1C(=O)C(=O)N(CCc2ccccc2)C1=O (stereo unspecified)
Reply | > 100 µM (inactive)

Ask | Form field: reported GI50 of CCOC(=O)Cc1nn2c(=O)cc(C)nc2s1
Reply | 55.2 µM (inactive)
